- Tested on: Streptococcus pyogenes EES61
Catalogue of MIC readings, one per entry.

CC[C@H]1OC(=O)[C@H](C)C(=O)[C@H](C)[C@@H](O[C@@H]2O[C@H](C)C[C@H](N(C)C)[C@H]2O)[C@](C)(OC/C=C/c2cncc(-c3ccco3)c2)C[C@@H](C)C(=O)[C@H](C)[C@H]2NC(=O)O[C@@]21C | 0.02 µg/mL
CC[C@H]1OC(=O)[C@H](C)C(=O)[C@H](C)[C@@H](O[C@@H]2O[C@H](C)C[C@H](N(C)C)[C@H]2O)[C@](C)(OC/C=C/c2ccc(-c3cnccn3)s2)C[C@@H](C)C(=O)[C@H](C)[C@H]2NC(=O)O[C@@]21C | ≤ 0.005 µg/mL

Q: What does the record list as MIC for CC[C@H]1OC(=O)[C@H](C)C(=O)[C@H](C)[C@@H](O[C@@H]2O[C@H](C)C[C@H](N(C)C)[C@H]2O)[C@](C)(OCC#Cc2ccc(-c3cccc(C(F)(F)F)c3)s2)C[C@@H](C)C(=O)[C@H](C)[C@H]2NC(=O)O[C@@]21C ?
Ans: 0.1 µg/mL

Q: // same read-out, input: CC[C@H]1OC(=O)[C@H](C)C(=O)[C@H](C)[C@@H](O[C@@H]2O[C@H](C)C[C@H](N(C)C)[C@H]2O)[C@](C)(OCC#Cc2ccc(-c3cncs3)s2)C[C@@H](C)C(=O)[C@H](C)[C@H]2NC(=O)O[C@@]21C
Ans: 0.01 µg/mL

Q: Follow-up entry: CC[C@H]1OC(=O)[C@H](C)C(=O)[C@H](C)[C@@H](O[C@@H]2O[C@H](C)C[C@H](N(C)C)[C@H]2O)[C@](C)(OCC#Cc2ccc(-c3cncc(C#N)c3)s2)C[C@@H](C)C(=O)[C@H](C)[C@H]2NC(=O)O[C@@]21C
Ans: ≤ 0.005 µg/mL

Q: // query: CC[C@H]1OC(=O)[C@H](C)C(=O)[C@H](C)[C@@H](O[C@@H]2O[C@H](C)C[C@H](N(C)C)[C@H]2O)[C@](C)(OC/C=C/c2cncc(-c3cncs3)c2)C[C@@H](C)C(=O)[C@H](C)[C@H]2NC(=O)O[C@@]21C
Ans: 0.02 µg/mL

Q: For CC[C@H]1OC(=O)[C@H](C)C(=O)[C@H](C)[C@@H](O[C@@H]2O[C@H](C)C[C@H](N(C)C)[C@H]2O)[C@](C)(OC/C=C/c2cncc(Br)c2)C[C@@H](C)C(=O)[C@H](C)[C@H]2NC(=O)O[C@@]21C then?
Ans: 0.02 µg/mL

Q: Please do the same for CC[C@H]1OC(=O)[C@H](C)C(=O)[C@H](C)[C@@H](O[C@@H]2O[C@H](C)C[C@H](N(C)C)[C@H]2O)[C@](C)(OC/C=C/c2ccc(-c3cncnc3)s2)C[C@@H](C)C(=O)[C@H](C)[C@H]2NC(=O)O[C@@]21C as well.
Ans: 0.01 µg/mL

Q: Do the same for CC[C@H]1OC(=O)[C@H](C)C(=O)[C@H](C)[C@@H](O[C@@H]2O[C@H](C)C[C@H](N(C)C)[C@H]2O)[C@](C)(OCC#Cc2ccc(-c3cncc(C(=O)N(C)C)c3)s2)C[C@@H](C)C(=O)[C@H](C)[C@H]2NC(=O)O[C@@]21C please
Ans: 0.02 µg/mL
